target: farnesyl protein transferase (FPT), partially purified from rat brain (Rattus norvegicus, UniProt Q02293+Q04631); construct: were partially purified from rat brain by ammonium sulfate fractionation followed by Q-Sepharose; assay: Inhibition of farnesyl protein transferase (transfer of [3H]farnesyl to Ras-CVLS); assay type: biochemical; conditions: enzyme inhibition; read-out: FPT IC50
Sequence (Q02293 whole entry, one chain of several): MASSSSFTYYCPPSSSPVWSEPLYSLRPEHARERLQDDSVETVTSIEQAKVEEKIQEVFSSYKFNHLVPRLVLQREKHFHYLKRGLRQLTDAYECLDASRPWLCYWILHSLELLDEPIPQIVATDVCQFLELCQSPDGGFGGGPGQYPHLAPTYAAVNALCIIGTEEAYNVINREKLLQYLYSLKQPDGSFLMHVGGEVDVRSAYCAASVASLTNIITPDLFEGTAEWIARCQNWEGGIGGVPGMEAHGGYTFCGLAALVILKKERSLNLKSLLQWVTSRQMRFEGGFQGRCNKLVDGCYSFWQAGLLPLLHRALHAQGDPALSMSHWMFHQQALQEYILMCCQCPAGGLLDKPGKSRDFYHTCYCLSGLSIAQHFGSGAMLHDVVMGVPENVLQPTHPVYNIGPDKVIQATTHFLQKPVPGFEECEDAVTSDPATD
PROPERTY_LABEL: IC50 (µM)

Below are worked cases with known answers.
Noted for `CCCCNc1c(Br)cnc2c1CCc1cc(Cl)ccc1C2=C1CCN(C(=O)Cc2ccncc2)CC1` : its IC50 reads 0.9

Reported IC50 for CCCNC(=O)N1CCC(CC(=O)N2CCN(C3c4ccc(Cl)cc4CCc4cccnc43)CC2)CC1 (stereo not shown) was 0.88

Data point: `CN1CCC(CC(=O)N2CCC(=C3c4ccc(Cl)cc4CCc4cc(Br)cnc43)CC2)CC1` ; IC50 = 0.24

Input CC1(C2CCN(C(=O)Cc3cc[n+]([O-])cc3)CC2)c2ccc(Cl)cc2CCc2cc(Br)cnc21 (stereo not shown) . Output IC50: 0.084

1 = O=C(Cc1ccnc(OCc2ccccc2)c1)N1CCC(=C2c3ccc(Cl)cc3CCc3cc(Br)cnc32)CC1
2 = O=C(CC1CCCNC1)N1CCN(C2c3ccc(Cl)cc3CCc3cccnc32)CC1 (stereo not shown)
Query block: Among 1 and 2 , which shows a numerically higher IC50 result? Which one? Tell me its label.
Result block: 1

---

biological target: farnesyl protein transferase (FPT), partially purified from rat brain (Rattus norvegicus, UniProt Q02293+Q04631); construct: were partially purified from rat brain by ammonium sulfate fractionation followed by Q-Sepharose; assay: Inhibition of farnesyl protein transferase (transfer of [3H]farnesyl to Ras-CVLS); format: biochemical; details: Ras-CVLS farnesylation, partially purified rat brain FPT; read-out: FPT IC50
pIC50: −log10 of the molar value.
PROPERTY_LABEL: pIC50

// solved cases for pIC50 follow
Entry under test: O=C(Cc1ccncc1)N1CCC(=C2c3ccc(Cl)cc3CCc3c(On4nnc5ccccc54)ccnc32)CC1 [Example 249] . Its pIC50 was 6.19

// sample O=C(Cc1ccncc1)N1CCC(=C2c3ccc(Cl)cc3CCc3ccc[n+]([O-])c32)CC1 [Example 230] , its pIC50 was 5.69

pIC50 reported for this molecule O=C(c1ccc(O)cc1)N1CCC(=C2c3ccc(Cl)cc3CCc3cccnc32)CC1 [Example 7] : 5.64

What the record says about C[S+]([O-])c1ccc(C(=O)N2CCC(=C3c4ccc(Cl)cc4CCc4cccnc43)CC2)cc1 (stereo not shown) [Example 94] : pIC50 is 5.40

Measured pIC50, O=C(c1cccnc1O)N1CCC(=C2c3ccc(Cl)cc3CCc3cccnc32)CC1 [Example 114] : 4.95

1 = CC(C)(C(=O)N1CCC(=C2c3ccc(Cl)cc3C=Cc3cccnc32)CC1)c1cccnc1 [Example 278]
2 = O=C(NCc1ccccc1)c1ccc2c(c1)CCc1cccnc1C2=C1CCN(C(=O)Cc2ccncc2)CC1 [Example 436]
Query block: Between 1 and 2 , which one shows the larger pIC50 value? Answer format: the label of the selected item.
Result block: 1
(1: 6.06, 2: 4.77)

a = O=C(CSc1ncccn1)N1CCC(=C2c3ccc(Cl)cc3CCc3cccnc32)CC1 [Example 12]
b = CC(=O)N1CCC(CC(=O)N2CCN([C@H]3c4ccc(Cl)cc4CCc4cccnc43)CC2)CC1 [225 (5.99)]
c = CN(C)c1ccc(CC(=O)N2CCC(=C3c4ccc(Cl)cc4CCc4cccnc43)CC2)cc1 [Example 297]
d = CS(=O)(=O)OCC(C(=O)N1CCC(=C2c3ccc(Cl)cc3CCc3cccnc32)CC1)c1ccccc1 (stereo not shown) [Example 83]
Query block: Your job: order these 4 records by pIC50, ascending. Please list the labels in the order you were asked to rank them.
Result block: a, c, b, d

1 = O=C(C1CCS(=O)(=O)CC1)N1CCC(=C2c3ccc(Cl)cc3CCc3cccnc32)CC1 [Example 95]
2 = CN1CCCC(CC(=O)N2CCN(C3c4ccc(Cl)cc4CCc4cccnc43)CC2)C1 (stereo not shown) [Example 206]
3 = N#CCC(=O)N1CCC(=C2c3ccc(Cl)cc3CCc3cc(Br)cnc32)CC1 [Example 400-A]
Query block: Form: Sort by [pIC50] Order [ ascending ] In your reply, arrange the labels in the requested order.
Result block: 1, 3, 2
(1: 5.38, 3: 5.59, 2: 5.92)
